What follows is literature data on IC50 for RON (Homo sapiens, UniProt Q04912).

Look over these answered cases.
[[record]]
compound = "CC(C)c1ccc(NC(=O)Nc2ccc(Oc3ccnc4c3CNC(=O)N4)c(F)c2)cc1"
result = "< 10 nM"

[[record]]
compound = "CCOC(=O)COc1ccc(-c2cnc(N)c(-c3cc4c(Cl)ccc(F)c4cn3)c2)cc1"
result = "1000 to 20000 nM"

[[record]]
compound = "COCCCNC(=O)Nc1nc2cc(F)c(OC(C)c3c(Cl)ccc(F)c3Cl)cc2s1 (stereo not drawn)"
result = "< 500 nM"

[[record]]
compound = "Nc1ncc(-c2ccc(OCC(=O)N3CCOCC3)cc2)cc1-c1nc2ccccc2s1"
result = "> 20000 nM"

[[record]]
compound = "CC(Oc1cc2sc(NC(=O)NCCN3CCN(C)CC3)nc2cc1F)c1c(F)ccc(Cl)c1Cl (stereo not drawn)"
result = "< 500 nM"


As a next step, examine the compound that follows.
stdin: Lab note: need IC50 with RON (Homo sapiens, UniProt Q04912) for entry `Cc1ccc(C(F)(F)F)c2nc(-c3cc(-c4cnn(C5CCNCC5)c4)cnc3N)sc12` , please look it up.
stdout: 100 to 1000 nM

----------
What follows is literature data on IC50 for RON (Homo sapiens, UniProt Q04912).

Look over these answered cases.
[[record]]
compound = "Nc1ncc(-c2cnn(C3CCNCC3)c2)cc1-c1nc2cc(Cl)ccc2s1"
system_tested = "RON (Homo sapiens, UniProt Q04912)"
result = "100 to 1000 nM"

[[record]]
compound = "CC(Oc1ccc2nc(NC(=O)NCCC3CCCN3C)sc2c1)c1c(Cl)ccc(F)c1Cl (stereo not drawn)"
system_tested = "RON (Homo sapiens, UniProt Q04912)"
result = "< 500 nM"

[[record]]
compound = "CN(C)C(=O)Cn1cc(-c2cnc(N)c(-c3nc4ccccc4s3)c2)cn1"
system_tested = "RON (Homo sapiens, UniProt Q04912)"
result = "1000 to 20000 nM"

[[record]]
compound = "O=C(Nc1cccc(Cl)c1)Nc1ccc(Oc2ccnc3c2CNC(=O)N3)c(F)c1"
system_tested = "RON (Homo sapiens, UniProt Q04912)"
result = "10 to 100 nM"

[[record]]
compound = "O=C1NCc2c(Oc3ccc(NC(=O)c4cccc(F)c4)cc3F)ccnc2N1"
system_tested = "RON (Homo sapiens, UniProt Q04912)"
result = "10 to 100 nM"


stdin: Lab note: need IC50 with RON (Homo sapiens, UniProt Q04912) for entry `Nc1ccc(-c2cnc(N)c(-c3cc4c(Cl)ccc(F)c4cn3)c2)cn1` , please look it up.
stdout: 1000 to 20000 nM

stdin: Lab note: need IC50 with RON (Homo sapiens, UniProt Q04912) for entry `Nc1ncc(-c2cnn(C3CCC4(CC3)OCCO4)c2)cc1-c1nc2ccccc2s1` , please look it up.
stdout: 1000 to 20000 nM

stdin: Lab note: need IC50 with RON (Homo sapiens, UniProt Q04912) for entry `Nc1ncc(-c2cnn(C3CCNCC3)c2)cc1-c1nc2c(F)cccc2s1` , please look it up.
stdout: 100 to 1000 nM

stdin: Lab note: need IC50 with RON (Homo sapiens, UniProt Q04912) for entry `Cc1c(C(=O)Nc2ccc(Oc3ccnc4c3CNC(=O)N4)c(F)c2)c(=O)n(-c2ccccc2)n1CC(C)(C)O` , please look it up.
stdout: 100 to 1000 nM

----------
What follows is literature data on IC50 for RON (Homo sapiens, UniProt Q04912).

[[record]]
molecule = "CN(C)C(=O)[C@@H]1C[C@H](n2cc(-c3cnc(N)c(-c4nc5ccccc5s4)c3)cn2)CN1"
result = "100 to 1000 nM"


stdin: If you can, please state the reported IC50 value of `CN(C)C(=O)CN1CCC(n2cc(-c3cnc(N)c(-c4nc5ccccc5s4)c3)cn2)CC1` .
stdout: 100 to 1000 nM

stdin: If you can, please state the reported IC50 value of Cc1ccc(F)c(C(C)Oc2ccc3nc(NC(=O)NCCN4CCOCC4)sc3c2)c1Cl (stereo not shown) .
stdout: 500 to 10000 nM

stdin: If you can, please state the reported IC50 value of `Cn1cnc(-c2cc3nccc(Oc4ccc(NC(=O)c5cnn(-c6ccccc6)c5C(F)(F)F)cc4F)c3cn2)c1` .
stdout: 2.8 nM

stdin: If you can, please state the reported IC50 value of `Nc1ncc(-c2cccnc2)cc1-c1cc2c(Cl)ccc(F)c2cn1` .
stdout: 1000 to 20000 nM

stdin: If you can, please state the reported IC50 value of `NC(=O)CN1CCC(n2cc(-c3cnc(N)c(-c4nc5ccccc5s4)c3)cn2)CC1` .
stdout: 100 to 1000 nM

stdin: If you can, please state the reported IC50 value of `Nc1ncc(-c2ccc(C(=O)NC3CC3)cc2)cc1-c1nc2ccccc2s1` .
stdout: > 20000 nM

stdin: If you can, please state the reported IC50 value of `Nc1ncc(-c2cccc(C(=O)N3CCCC3)c2)cc1-c1nc2ccccc2s1` .
stdout: > 20000 nM

stdin: If you can, please state the reported IC50 value of CC(Oc1ccc2nc(NC(=O)NCCN3CCOCC3)sc2c1)c1c(Cl)ccc(Cl)c1Cl (stereo not shown) .
stdout: 500 to 10000 nM

stdin: If you can, please state the reported IC50 value of `Nc1ncc(-c2cnn([C@@H]3CN[C@@H](C(=O)N4CCCC4)C3)c2)cc1-c1nc2ccccc2s1` .
stdout: 100 to 1000 nM

stdin: If you can, please state the reported IC50 value of CC(C(=O)N(C)C)n1cc(-c2cnc(N)c(-c3nc4ccccc4s3)c2)cn1 (stereo not shown) .
stdout: 1000 to 20000 nM

stdin: If you can, please state the reported IC50 value of `CCN1Cc2c(Oc3ccc(NC(=O)Nc4c(-c5ccccc5)noc4C)cc3F)ccnc2NC1=O` .
stdout: 100 to 1000 nM

stdin: If you can, please state the reported IC50 value of CC(Oc1ccc2nc(NC(=O)NCCN3CCOCC3)sc2c1)c1ccccc1 (stereo not shown) .
stdout: 500 to 10000 nM

stdin: If you can, please state the reported IC50 value of `N#Cc1cccc(C(=O)Nc2ccc(Oc3ccnc4c3CNC(=O)N4)c(F)c2)c1` .
stdout: 10 to 100 nM

stdin: If you can, please state the reported IC50 value of `CCOc1ccn(-c2ccc(F)cc2)c(=O)c1C(=O)Nc1ccc(Oc2ccnc3cc(-c4cn(C)cn4)sc23)c(F)c1` .
stdout: 11.1 nM

stdin: If you can, please state the reported IC50 value of `CC(C)n1cc(-c2ccc(F)cc2)c(=O)c(C(=O)Nc2ccc(Oc3ccnc(N)c3Cl)cn2)n1` .
stdout: 2 nM

----------
What follows is literature data on IC50 for RON (Homo sapiens, UniProt Q04912).

Look over these answered cases.
[[record]]
compound = "NC(=O)c1cccc(-c2cnc(N)c(-c3nc4ccccc4s3)c2)c1"
result = "1000 to 20000 nM"

[[record]]
compound = "Nc1ncc(-c2cnn(C3CCN(CC(=O)O)CC3)c2)cc1-c1nc2ccccc2s1"
result = "100 to 1000 nM"

[[record]]
compound = "CC(Oc1ccc2nc(NC(=O)NCCN3CCCC3)sc2c1)c1c(Cl)ccc(F)c1Cl (centres unmarked)"
result = "500 to 10000 nM"

[[record]]
compound = "CC(c1c(Cl)cccc1Cl)c1c[nH]c2ncc(-c3cnn(C4CCNCC4)c3)cc12 (centres unmarked)"
result = "≤ 100 nM"

[[record]]
compound = "CC(Oc1ccc2nc(NC(=O)NCCN3CCOCC3)sc2c1)c1c(F)ccc(Cl)c1Cl (centres unmarked)"
result = "< 500 nM"

[[record]]
compound = "CC(Oc1cc2sc(NC(=O)NCCN)nc2cc1F)c1c(Cl)ccc(F)c1Cl (single isomer, unassigned)"
result = "500 to 10000 nM"

[[record]]
compound = "Nc1ncc(-c2cnn(C3CCN(C=O)CC3)c2)cc1-c1cc2c(Cl)ccc(F)c2cn1"
result = "1000 to 20000 nM"

[[record]]
compound = "COCCNC(=O)CN1CCC(n2cc(-c3cnc(N)c(-c4nc5ccccc5s4)c3)cn2)CC1"
result = "100 to 1000 nM"


stdin: If you can, please state the reported IC50 value of `Nc1ncc(-c2cnn(C3CCNCC3)c2)cc1N1CCc2c(Cl)cccc2C1` .
stdout: 100 to 1000 nM

stdin: If you can, please state the reported IC50 value of `CN(C)C(=O)COc1ccc(-c2cnc(N)c(-c3nc4ccccc4s3)c2)cc1` .
stdout: 1000 to 20000 nM

stdin: If you can, please state the reported IC50 value of CNCCNC(=O)Nc1nc2cc(F)c(OC(C)c3c(Cl)ccc(F)c3Cl)cc2s1 (centres unmarked) .
stdout: < 500 nM

stdin: If you can, please state the reported IC50 value of `Nc1ncc(-c2cnn([C@@H]3CN[C@H](C(=O)N4CCOCC4)C3)c2)cc1-c1cc2c(Cl)ccc(F)c2cn1` .
stdout: 100 to 1000 nM

stdin: If you can, please state the reported IC50 value of `Cn1cnc(-c2nc3c(Oc4ccc(NC(=O)c5cnn(-c6ccccc6)c5C(F)(F)F)cc4F)ncnc3s2)c1` .
stdout: 222 to 291 nM

stdin: If you can, please state the reported IC50 value of `CN(C)C(=O)CCn1cc(-c2cnc(N)c(-c3nc4ccccc4s3)c2)cn1` .
stdout: 1000 to 20000 nM

stdin: If you can, please state the reported IC50 value of `CN(C)CC(=O)NCC#Cc1cnc(N)c(-c2nc3ccccc3s2)c1` .
stdout: 1000 to 20000 nM

stdin: If you can, please state the reported IC50 value of `Nc1ncc(-c2cnn(CCC(=O)N3CCCCC3)c2)cc1-c1nc2ccccc2s1` .
stdout: > 20000 nM

stdin: If you can, please state the reported IC50 value of `Nc1ncc(-c2cnn(C3CCNCC3)c2)cc1-c1cc2ccc(F)cc2cn1` .
stdout: 1000 to 20000 nM
